- assay summary: in vitro
- condition label: dog, liver microsomes
endpoint: CLint scaled at 1 h, 1 µM (mL/min/kg)
// return numeric value only (unit: mL/min/kg, not printed)

Ask: Would you kindly share the measured CLint scaled at 1 h, 1 µM for Cc1nc(N[C@H](C)c2cccc(C(F)F)c2F)c2cc3c(cc2n1)OCC[C@H]1CN(CC(F)(F)F)CCN31 ?
Result: 12

###

- condition label: dog, in vivo, po, 20 mg/kg, 24 h
endpoint: Cmax (ng/mL)
// return numeric value only (unit: ng/mL, not printed)

Ask: Would you kindly share the measured Cmax for Cc1nc(N[C@H](C)c2cccc(C(F)F)c2F)c2cc3c(cc2n1)OCC[C@H]1CN(CC(F)(F)F)CCN31 ?
Result: 232

###

- assay summary: in vitro
- condition label: human, liver microsomes
endpoint: CLint scaled at 1 h, 1 µM (mL/min/kg)
// return numeric value only (unit: mL/min/kg, not printed)

Ask: Would you kindly share the measured CLint scaled at 1 h, 1 µM for Cc1nc(N[C@H](C)c2cccc(C(F)F)c2F)c2cc3c(cc2n1)OCC[C@H]1CN(CC(F)(F)F)CCN31 ?
Result: 442

###

- condition label: rat, in vivo, iv, 2 mg/kg, 24 h
endpoint: Cmax
Please answer in the form of a number followed by its unit of measurement.

Ask: Would you kindly share the measured Cmax for Cc1nc(N[C@H](C)c2cccc(C(F)F)c2F)c2cc3c(cc2n1)OCC[C@H]1CN(CC(F)(F)F)CCN31 ?
Result: 518 ng/mL

###

Each entry below carries its reported half-life at 24 h.
- assay summary: Half life in ICR mouse at 50 mg/kg, po measured up to 24 hrs by LC-MS/MS analysis
- condition label: in vivo
// return numeric value only (unit: h, not printed)

// below: answered compounds
{"mol smiles": "Cc1nc(N[C@H](C)c2cccc(C(F)F)c2F)c2cc3c(cc2n1)OCC[C@H]1CN(c2ccnn2C)CCN31", "experimental result": 2.61}
{"mol smiles": "Cc1nc(N[C@H](C)c2cccc(C(F)F)c2F)c2cc3c(cc2n1)OCC[C@H]1CN(C(=O)C2COC2)CCN31", "experimental result": 1.36}
{"mol smiles": "Cc1nc(N[C@H](C)c2cccc(C(F)F)c2F)c2cc3c(cc2n1)OCC[C@H]1CN(CC(F)(F)F)CCN31", "experimental result": 4.13}
{"mol smiles": "Cc1nc(N[C@H](C)c2cccc(C(F)F)c2F)c2cc3c(cc2n1)OCC[C@H]1CN(C(=O)c2cccnc2)CCN31", "experimental result": 1.47}
{"mol smiles": "Cc1nc(N[C@H](C)c2cccc(C(F)F)c2F)c2cc3c(cc2n1)OCC[C@H]1CN(CC2COC2)CCN31", "experimental result": 7.39}
{"mol smiles": "Cc1nc(N[C@H](C)c2cccc(C(F)F)c2F)c2cc3c(cc2n1)OCC[C@H]1CN(C(=O)[C@@H]2CCOC2)CCN31", "experimental result": 2.29}

Ask: Would you kindly share the measured half-life at 24 h for COCCN1CCN2c3cc4c(N[C@H](C)c5cccc(C(F)F)c5F)nc(C)nc4cc3OCC[C@H]2C1 ?
Result: 7.23

Ask: Would you kindly share the measured half-life at 24 h for Cc1nc(N[C@H](C)c2cccc(C(F)F)c2F)c2cc3c(cc2n1)OCC[C@H]1CN(C)CCN31 ?
Result: 20
